- assay-remarks: fungicidal lysis via adenylate kinase leakage – AK release luminescence, single concentration, primary screen (AID 651654)
- assay-setup: C. neoformans lysis, 4 h, at 15 µM, stronger effect = higher value, normalised: neutral wells 0, clomiphene wells 100
Screen size: about 360,000 compounds; about 740 (0.21%) were called active. The sample holds actives, similar compounds and a random draw of the others, so the mix is not that of the screen.
recorded-endpoint: lysis activity (%)

structure-smiles-string: C[C@H](CO)N1C[C@H](C)[C@H](CN(C)C)Oc2c(NC(=O)C3CCOCC3)cccc2C1=O
recorded-endpoint: lysis activity
unit-of-measurement: %
reported: -4.63
--
structure-smiles-string: CCCN(C)C[C@@H]1OCCCC[C@H](C)Oc2ccc(NS(=O)(=O)c3ccc(C)cc3)cc2C(=O)N([C@H](C)CO)C[C@@H]1C
recorded-endpoint: lysis activity
unit-of-measurement: %
reported: 98.4
--
structure-smiles-string: Cc1ccc(S(=O)(=O)Nc2ccc3c(c2)C(=O)N([C@@H](C)CO)C[C@H](C)[C@H](CN(C)C(=O)Nc2ccc(C(F)(F)F)cc2)O3)cc1
recorded-endpoint: lysis activity
unit-of-measurement: %
reported: 100
--
structure-smiles-string: Cc1noc(C)c1S(=O)(=O)Nc1ccc2c(c1)C(=O)N([C@@H](C)CO)C[C@H](C)[C@H](CN(C)CC1CCCCC1)OCCCC[C@H](C)O2
recorded-endpoint: lysis activity
unit-of-measurement: %
reported: 1.9
--
structure-smiles-string: C[C@H]1CN([C@@H](C)CO)C(=O)c2cc(NS(C)(=O)=O)ccc2O[C@H]1CN(C)C(=O)Nc1ccc(C(F)(F)F)cc1
recorded-endpoint: lysis activity
unit-of-measurement: %
reported: 2.09
--
structure-smiles-string: Cc1noc(C)c1S(=O)(=O)Nc1ccc2c(c1)C(=O)N([C@H](C)CO)C[C@@H](C)[C@@H](CN(C)Cc1ccccc1)OCCCC[C@@H](C)O2
recorded-endpoint: lysis activity
unit-of-measurement: %
reported: 0.357
--
structure-smiles-string: Cc1ccc(S(=O)(=O)Nc2ccc3c(c2)C(=O)N([C@H](C)CO)C[C@@H](C)[C@H](CN(C)C(=O)Nc2ccc(C(F)(F)F)cc2)OCCCC[C@H](C)O3)cc1
recorded-endpoint: lysis activity
unit-of-measurement: %
reported: -2.02

* * *

- assay-remarks: fungicidal lysis via adenylate kinase leakage – AK release luminescence, single concentration, primary screen (AID 651654)
- assay-setup: C. neoformans lysis, 4 h, at 15 µM, normalised: neutral wells 0, clomiphene wells 100
Out of some 360,000 compounds screened, about 740 (0.21%) were called active.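 The calls were made as follows: active = mean lysis activity across replicates of at least 80%, whatever share of replicates individually reach that level; inactive = mean lysis activity below 80%.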 Many of the other results were omitted from the sample, so actives are more common in it than they were.
Outcomes: active, inactive

structure-smiles-string: C[C@H](CO)N1C[C@H](C)[C@@H](CN(C)S(=O)(=O)c2ccc(Cl)cc2)Oc2ccc(NS(C)(=O)=O)cc2CC1=O
assigned-class: inactive
--
structure-smiles-string: Cc1noc(C)c1S(=O)(=O)Nc1ccc2c(c1)C(=O)N([C@@H](C)CO)C[C@@H](C)[C@@H](CN(C)Cc1ccccc1)OCCCC[C@H](C)O2
assigned-class: active
--
structure-smiles-string: COc1ccccc1NC(=O)N[C@H]1CC[C@H](CCn2cc(-c3cccnc3)nn2)O[C@@H]1CO
assigned-class: inactive
--
structure-smiles-string: CCCN(C)C[C@H]1OCCCC[C@H](C)Oc2ccc(NS(=O)(=O)c3ccc(C)cc3)cc2C(=O)N([C@@H](C)CO)C[C@H]1C
assigned-class: inactive

# credit: PubChem BioAssay AID651654
